Target: Hap1 (UniProt P0CE41)
Sequence (P0CE41 whole entry): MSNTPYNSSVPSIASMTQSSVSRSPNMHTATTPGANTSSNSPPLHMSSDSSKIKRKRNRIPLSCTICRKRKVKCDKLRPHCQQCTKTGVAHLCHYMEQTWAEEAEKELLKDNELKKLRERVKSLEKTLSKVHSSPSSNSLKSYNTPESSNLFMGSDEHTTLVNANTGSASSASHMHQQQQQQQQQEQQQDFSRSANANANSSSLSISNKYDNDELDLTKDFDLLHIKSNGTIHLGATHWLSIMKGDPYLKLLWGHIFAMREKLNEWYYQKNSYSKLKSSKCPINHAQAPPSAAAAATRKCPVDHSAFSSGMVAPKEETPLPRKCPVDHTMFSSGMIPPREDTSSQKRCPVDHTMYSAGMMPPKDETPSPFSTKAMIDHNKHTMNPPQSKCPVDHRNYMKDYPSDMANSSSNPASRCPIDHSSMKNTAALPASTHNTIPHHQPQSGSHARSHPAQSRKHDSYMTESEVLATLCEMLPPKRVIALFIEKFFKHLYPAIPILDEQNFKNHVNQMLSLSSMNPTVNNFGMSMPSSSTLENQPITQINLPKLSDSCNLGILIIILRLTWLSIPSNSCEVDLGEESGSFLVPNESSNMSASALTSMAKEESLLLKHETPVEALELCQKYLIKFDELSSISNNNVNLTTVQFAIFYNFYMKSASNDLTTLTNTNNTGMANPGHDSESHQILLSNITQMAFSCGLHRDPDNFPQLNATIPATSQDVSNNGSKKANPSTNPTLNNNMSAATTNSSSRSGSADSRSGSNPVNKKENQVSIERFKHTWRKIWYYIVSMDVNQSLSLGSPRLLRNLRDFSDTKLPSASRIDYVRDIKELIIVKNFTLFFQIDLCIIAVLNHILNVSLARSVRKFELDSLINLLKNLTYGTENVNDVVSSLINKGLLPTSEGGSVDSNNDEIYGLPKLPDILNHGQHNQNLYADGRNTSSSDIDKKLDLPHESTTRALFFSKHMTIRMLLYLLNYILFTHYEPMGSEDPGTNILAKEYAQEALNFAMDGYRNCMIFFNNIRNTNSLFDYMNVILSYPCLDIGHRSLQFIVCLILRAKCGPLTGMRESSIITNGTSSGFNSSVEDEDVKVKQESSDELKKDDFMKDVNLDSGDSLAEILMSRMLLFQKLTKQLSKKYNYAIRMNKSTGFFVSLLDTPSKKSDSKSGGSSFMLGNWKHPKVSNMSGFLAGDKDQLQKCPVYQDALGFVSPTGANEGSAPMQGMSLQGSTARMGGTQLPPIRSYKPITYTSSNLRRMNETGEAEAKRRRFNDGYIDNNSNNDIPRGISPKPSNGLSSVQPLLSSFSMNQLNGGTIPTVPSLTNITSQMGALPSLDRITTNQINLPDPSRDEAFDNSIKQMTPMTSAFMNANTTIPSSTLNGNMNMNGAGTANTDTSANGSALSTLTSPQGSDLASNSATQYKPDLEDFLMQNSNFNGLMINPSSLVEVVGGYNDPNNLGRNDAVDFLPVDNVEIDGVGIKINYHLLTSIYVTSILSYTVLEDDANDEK
Assay: PBM E-score (8-mer binding enrichment) (E-score (-0.5 to 0.5)); higher = stronger / more preferred TF binding
Conditions: protein concentration: 200 nM; construct: GST-DNA-binding domain
The full ranking holds about 33,000 sequences; the median of “E-score (-0.5 to 0.5)” is about -0.053, and the highest 2% start at about 0.37. The sample holds the highest values, similar sequences and a random draw of the others, so the mix is not that of the screen.
Lab note: compare PBM E-score against 0.3. Equal or greater, write 1 (yes). Smaller, write 0 (no).

Here are 2 sequences together with their reported answers.
Sequence entry | Category label
CTATGAGA | 0 (no)
GGATCGAA | 0 (no)

Hi team, for `TCGGAACA` , is the recorded PBM E-score at or above 0.3?
1 (yes)

Hi team, for `AGTCCGAG` , is the recorded PBM E-score at or above 0.3?
1 (yes)

Hi team, for `ATTGAACC` , is the recorded PBM E-score at or above 0.3?
0 (no)

Hi team, for `ACGTCGGA` , is the recorded PBM E-score at or above 0.3?
0 (no)

Hi team, for `ATCGGTAA` , is the recorded PBM E-score at or above 0.3?
1 (yes)

Hi team, for `ACGGAAAA` , is the recorded PBM E-score at or above 0.3?
1 (yes)

Hi team, for `ACATTTAA` , is the recorded PBM E-score at or above 0.3?
0 (no)
